Give TGI for every item shown.
test system: CAKI-1 renal; assay: NCI tumour cell line growth inhibition, 48 h

In: I would be grateful if you could share the reported TGI for CN1CCCC1c1cccnc1.O=C(O)c1ccccc1O.O=C([O-])c1ccccc1[OH2+].O=C([O-])c1ccccc1[OH2+].[Mn+2] (stereo unspecified) .
Out: > 100 µM

In: I would be grateful if you could share the reported TGI for COc1ccc(COc2cc3oc(=O)c4cc(C(C)O)ccc4c3cc2OC)cc1 (stereo unspecified) .
Out: > 51.1 µM

In: I would be grateful if you could share the reported TGI for O=C(Nc1nc2ncn(CCO)c2c(=O)[nH]1)c1ccccc1 .
Out: > 100 µM

In: I would be grateful if you could share the reported TGI for NCc1ccc(-c2nc(-c3ccc(Cl)c(O)c3)c(-c3ccncc3)[nH]2)cc1 .
Out: > 25 µM

In: I would be grateful if you could share the reported TGI for CCCC(=O)OCOC(=O)N(C)N=Nc1ccc(C(=O)OCC)cc1 .
Out: > 100 µM

In: I would be grateful if you could share the reported TGI for CCCCN(C)C(=O)C1=C(C)NC(C)=C(C(=O)N(C)CCCC)C1 .
Out: > 100 µM

In: I would be grateful if you could share the reported TGI for COc1ccc(NC(=O)C(=O)Cc2nc3ccc(C(=O)c4ccccc4)cc3[nH]c2=O)c([N+](=O)[O-])c1 .
Out: > 100 µM

In: I would be grateful if you could share the reported TGI for CC(=O)N(CC(=O)C(=O)NNc1ccoc1)c1ccc(Cl)cc1 .
Out: > 100 µM

In: I would be grateful if you could share the reported TGI for O=C(O)CCCc1ccccc1 .
Out: > 1000 µM

In: I would be grateful if you could share the reported TGI for CN(C)c1nc(N)c(C#N)c(C#N)c1C#N .
Out: > 10 µM

In: I would be grateful if you could share the reported TGI for C=C1C2CCC3(CCC4C5(C)CCCC4(C=[N+](CCO)C5)C3C2)C1O (stereo unspecified) .
Out: > 100 µM
